tested on: M19-MEL; test: NCI tumour cell line growth inhibition, 48 h
The source made the active and inactive calls. Rule as the data show it: active = GI50 up to about 1.1 µM and inactive = higher.
assayReadout: GI50

Consider the following illustrative entries.
COC(=O)c1oc([N+](=O)[O-])c(-c2ccccc2)c1-c1ccccc1
36.8 µM (inactive)
CC(/C=C/NNC1=NN=C(c2ccccc2)C(c2ccccc2)N1)Sc1ccccc1N (configuration not stated)
9.2 µM (inactive)
O=S1(=O)OCCOS(=O)(=O)C1(Br)Br
> 100 µM (inactive)
CNc1ccc(/C=C2\C=Cc3ccccc32)cc1
43.2 µM (inactive)
C1CN(P2(N3CC3)=NP(N3CC3)(N3CC3)=NP(N3CC3)(N3CC3)=N2)CCO1 (configuration not stated)
> 100 µM (inactive)

Quick one: GI50 for Cc1c2c(cc3c(=O)ccn(CCN(C)C)c13)c(=O)ccn2CCN(C)C ?
16.4 µM (inactive)

Quick one: GI50 for O=Cc1ccc(-c2ccc(-c3ccc(C=O)s3)o2)s1 ?
> 100 µM (inactive)

Quick one: GI50 for C=C1C(=O)OC2/C=C(\C=O)CC/C=C(\C)C(O)C[C@@H]12 (some centres not stated) ?
5.45 µM (inactive)

Quick one: GI50 for O=C(NCO)NCOCn1c(=O)n(CO)c(=O)n(CO)c1=O ?
32.4 µM (inactive)

Quick one: GI50 for CN(C)CC1CC/C(=C\c2ccc(Cl)cc2)C1=O (configuration not stated) ?
3.54 µM (inactive)

Quick one: GI50 for N#CCC(=O)N/N=C(\C(=O)Nc1ccc(Cl)c(Cl)c1)C1CN(c2ccccc2)N=C1N (configuration not stated) ?
> 100 µM (inactive)

Quick one: GI50 for CC(C)(C)OC(=O)C1=C(O)C(C(=O)OC(C)(C)C)C23CCCCC12C(C(=O)OC(C)(C)C)C(O)=C3C(=O)OC(C)(C)C (configuration not stated) ?
> 100 µM (inactive)

Quick one: GI50 for Clc1ccc2cccc3c2c1C1OC3c2ccccc21 (configuration not stated) ?
> 100 µM (inactive)

----------
tested on: UACC-257; test: NCI tumour cell line growth inhibition, 48 h
Activity calls are given as the source filed them. Cut-off read from the data, not from the text of the source: active = GI50 up to about 1.1 µM and inactive = higher.
We begin with a simple list: items and their reported GI50.

Quick one: GI50 for COC(=O)[C@]1(C)CCC[C@@]2(C)C1CC[C@]13C=C(C(C)C)[C@H](CC21)CC3(Cl)C#N (stereo partly specified) ?
27.7 µM (inactive)

Quick one: GI50 for Cc1cn(C2OC(CO)C(O)C2F)c(=O)[nH]c1=O (stereo unspecified) ?
> 100 µM (inactive)

Quick one: GI50 for CCOC(=O)CCC(=O)C1c2cccc(O)c2C(=O)c2c(O)cccc21 ?
1.69 µM (inactive)

Quick one: GI50 for CC1CC(=O)N2CCCNC2=C1C#N (stereo unspecified) ?
> 100 µM (inactive)

Quick one: GI50 for Cc1ccc(C(=N)Nc2ccccc2)cc1 ?
38 µM (inactive)

Quick one: GI50 for CNc1ccc2ncccc2c1[N+](=O)[O-] ?
> 100 µM (inactive)

Quick one: GI50 for Clc1ccc2cccc3c2c1C1OC3c2ccccc21 (stereo unspecified) ?
> 100 µM (inactive)

Quick one: GI50 for Cc1ccc(C)c(/C(=N\N=C(N)N)C2CC2)c1 ?
31.6 µM (inactive)

Quick one: GI50 for Cc1ccc(-n2c(O)c(C#N)c3[nH]nc(N)c3c2=O)cc1 ?
> 100 µM (inactive)

Quick one: GI50 for O=Cc1ccc(-c2ccc(-c3ccc(C=O)s3)o2)s1 ?
2.61 µM (inactive)
